List of Plant response rating, Lambsquarters values.
Tested on: lambsquarters (Chenopodium album)
protocol-description: Test C preemergence
Type: in vivo
assay-setup: 125 g ai/ha, scale 0 to 100, 0 no effect, 100 complete control
API note: the answer field is a bare number with no unit suffix.

>>> obs_value("CN1CC(c2cc(F)cc(F)c2)C(C(=O)Nc2cccc(F)c2F)C1=O (stereo not shown)")
85
>>> obs_value("Cc1ccc(C2CN(C)C(=O)C2C(=O)Nc2ccccc2C(F)(F)F)cc1 (stereo not shown)")
70
>>> obs_value("CN1CC(c2cccc(OC(F)F)c2)C(C(=O)Nc2ccccc2S(C)(=O)=O)C1=O (stereo not shown)")
70

The record that follows has no Plant response rating, Lambsquarters shown yet.
Answer with the recorded Plant response rating, Lambsquarters for the compound listed here: Cc1ccc(C2CN(C)C(=O)C2C(=O)Nc2ccccc2S(C)(=O)=O)cc1 (stereo not shown)
65
